Data provenance: PubChem BioAssay

Experiment description: basal S. cerevisiae growth modulation, no modifier, primary screen, OD600, strain BY4716, 24 h, basal condition (AID 1173)
Cond: OD600, 24 h, higher = more signal, called active from +8 up or from −8 down
Everything with z-score lower than -0.07 is condition not met; everything else, including exactly -0.07, is condition met.

Use these answered entries as a reference point.
INSERT INTO assay_data (compound, classification) VALUES
  ('CCOC(=O)C1=C[C@@H](c2ccccc2)N(S(=O)(=O)c2ccc(C)cc2)[C@H]1c1ccccc1Cl', 'condition met'),
  ('[N-]=[N+]=Nc1ccccc1[C@H]1OC(c2ccc(OCCCO)cc2)=N[C@@]1(Cc1ccccc1)C(=O)N1CCCCC1', 'condition not met'),
  ('C=C[C@@H](COC(C)=O)N(C(=O)OC(C)(C)C)S(=O)(=O)c1ccc(Br)cc1', 'condition not met');

stdin: z-score >= -0.07 for CN1C(=O)C2C=CC(C(O)c3cccc(O)c3)N(Nc3ccccc3)C2C1=O (stereo not drawn) ?
stdout: condition met

stdin: z-score >= -0.07 for C[C@H]1NC(=O)[C@@]23C(=O)N[C@@H](Cc4ccccc4)C2[C@H](C)[C@@]2(C)O[C@H]2C3/C=C/C/C=C\CNC(=O)[C@H](Cc2ccccc2)NC1=O (stereo partly drawn) ?
stdout: condition met

stdin: z-score >= -0.07 for CC(C)N1C(=O)C[C@@](C(=O)NCCCN(C)C)(c2ccc([N+](=O)[O-])cc2)[C@H]1c1ccc(CO)cc1 ?
stdout: condition not met

stdin: z-score >= -0.07 for CO[C@]12C=C(Br)[C@@H](C[C@@H]1c1cccc(C)c1)[C@@]1(CO1)C2=O ?
stdout: condition not met

---

Experiment description: P. aeruginosa biofilm formation inhibitors, primary screen, PAO1 strain, BacTiter-Glo luminescence, LB-PBS (AID 1144)
Cond: 12 h, higher = more signal
Everything with z-score lower than -0.2 is rule not met; everything else, including exactly -0.2, is rule met.

Use these answered entries as a reference point.
INSERT INTO measurements (compound, classification) VALUES
  ('C=C(/C(=C/C[C@@H](OC(C)=O)c1cccc(OCCO)c1)c1cc(C(=O)OC)ccc1OC)C(C)C', 'rule not met'),
  ('CCCCC(=C=CC[C@@H](O)c1ccccc1OCCO)C[C@@H](O)COCc1ccccc1', 'rule not met'),
  ('CCOc1cc(C(O)C2C=CC3C(=O)N(c4ccccc4)C(=O)C3N2Nc2ccc(C#N)cc2)ccc1O (stereo not drawn)', 'rule not met'),
  ('CN(C)CCCNC(=O)[C@@]1(C)c2ccccc2C(=O)N(Cc2ccccc2)[C@H]1c1ccc(CO)cc1', 'rule met'),
  ('CC1CC/C=C\[C@H]2OC34C=CCN(c5ccc(Cl)cc5)C(=O)[C@H]3N(CCCCCO)C(=O)[C@]4(C)C2C(=O)O1 (stereo partly drawn)', 'rule met');

stdin: z-score >= -0.2 for C=CCN1C(=O)[C@@]2(CCS(=O)(=O)c3ccccc3)N=C(c3ccc(OCCCO)cc3)O[C@H]2c2ccccc21 ?
stdout: rule met

stdin: z-score >= -0.2 for N#Cc1ccc(C(O)C2C=CC3C(=O)N(c4ccccc4)C(=O)C3N2Nc2ccccc2)cc1 (stereo not drawn) ?
stdout: rule not met

stdin: z-score >= -0.2 for [N-]=[N+]=Nc1ccccc1[C@H]1OC(c2ccc(OCCCO)cc2)=N[C@@]1(Cc1ccccc1)C(=O)N1CCCCC1 ?
stdout: rule not met
